Every entry's value here was drawn from the RNAGym collection of RNA variant scans (doi:10.7554/elife.80360).

B1: HDV Ribozyme (parent)
chain: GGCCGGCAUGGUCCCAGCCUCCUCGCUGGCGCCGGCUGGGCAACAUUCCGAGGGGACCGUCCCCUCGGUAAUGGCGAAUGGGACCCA

- Variants of: B1
- Method: self-cleavage, relative activity (ratio to wild type); higher = more cleavage; co-transcriptional
Respond with yes for self-cleavage values of 0.3 and above, no for values below.

**Query** Does the reported self-cleavage for GGCCGGCUUGGUCCCAGCCUCCUCGCUGGCGCCGGCUGGGCAACAUUCCGACGGGACCGUCCCCUCGGUAAUGGCGAAUGGGACCCA fall at or above the 0.3 mark?
**Result** yes

**Query** Does the reported self-cleavage for GGCCGGCAUGGUCCCAGCCUCCUCGCUGGCGCCGGCUGGGCAACAUUCCGAGGGGUCCGUCCCCUCGGUAAUGGCGACUGGGACCCA fall at or above the 0.3 mark?
**Result** no

**Query** Does the reported self-cleavage for GGCCGGCAGGGUCCCACCCUCCUCGCUGGCGCCGGCUGGGCAACAUUCCGAGGGGACCGUCCCCUCGGUAAUGGCGAAUGGGACCCA fall at or above the 0.3 mark?
**Result** no

**Query** Does the reported self-cleavage for GGCCGGCAUGGUCCCAGCCUCCUCGCUGGCGCCGGCUGGGCAACAGUCCGAGGGGACCGUCCCCUCGGUAAUAGCGAAUGGGACCCA fall at or above the 0.3 mark?
**Result** yes

**Query** Does the reported self-cleavage for CGCCGGCAUGGUCCCAGCCUCCUCGCUGGCGCCGGCUGGGCAACAUUCCGAGGGGACCGUCCCCUCGGUAAUGGCGUAUGGGACCCA fall at or above the 0.3 mark?
**Result** no

**Query** Does the reported self-cleavage for GGCCGGCAUGGUCCCAGCCUACUCGCGGGCGCCGGCUGGGCAACAUUCCGAGGGGACCGUCCCCUCGGUAAUGGCGAAUGGGACCCA fall at or above the 0.3 mark?
**Result** no
